System: 422866-222-R5-J1-PDC complex spheroids viability;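 also: spheroids exposed to compounds for 7 days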
Test: Anticancer human tumor 422866-222-R5-J1-PDC patient-derived pancreatic adenocarcinoma cell line growth inhibition [RAS]; active = viability on the fitted dose curve at most 10% of control; inactive = the rest
Settings: second compound 0.00949 µM; first compound 3.16 µM
Outcomes: YES = active, NO = inactive

[
  {
    "molecule": "CC1(O)CCCC1n1c(=O)c(C(F)F)cc2cnc(NC3CCN(S(C)(=O)=O)CC3)nc21 (stereo not drawn) + CCn1c(-c2cccnc2C(C)OC)c2c3cc(ccc31)N1CCOC(CC(NC(=O)C(C(C)C)N(C)C(=O)C3(F)CCN(C(=O)C#CC(C)(C)N(C)C)CC3)C(=O)N3CCCC(N3)C(=O)OCC(C)(C)C2)C1",
    "label_value": "NO"
  },
  {
    "molecule": "CCC(CC)c1cc(NC2CCC(N)C2)n2nccc2n1 (stereo not drawn) + CCn1c(-c2cccnc2C(C)OC)c2c3cc(ccc31)N1CCOC(CC(NC(=O)C(C(C)C)N(C)C(=O)C3(F)CCN(C(=O)C#CC(C)(C)N(C)C)CC3)C(=O)N3CCCC(N3)C(=O)OCC(C)(C)C2)C1",
    "label_value": "NO"
  },
  {
    "molecule": "CCC(CC)c1cc(NC2CCC(N)C2)n2nccc2n1 (stereo not drawn) + CCn1c(-c2cc(N3CCN(C)CC3)cnc2C(C)OC)c2c3cc(ccc31)-c1csc(n1)CC(NC(=O)C1CC1C)C(=O)N1CCCC(N1)C(=O)OCC(C)(C)C2",
    "label_value": "NO"
  },
  {
    "molecule": "Cc1nc(N2CCC3(CC2)COC(C)C3N)c(CO)nc1Sc1ccnc(N)c1Cl (stereo not drawn) + CCn1c(-c2cccnc2C(C)OC)c2c3cc(ccc31)N1CCOC(CC(NC(=O)C(C(C)C)N(C)C(=O)C3(F)CCN(C(=O)C#CC(C)(C)N(C)C)CC3)C(=O)N3CCCC(N3)C(=O)OCC(C)(C)C2)C1",
    "label_value": "NO"
  },
  {
    "molecule": "CC(C)NCC(C(=O)N1CCN(c2ncnc3c2C(C)CC3O)CC1)c1ccc(Cl)cc1 (stereo not drawn) + CCn1c(-c2cc(N3CCN(C)CC3)cnc2C(C)OC)c2c3cc(ccc31)-c1csc(n1)CC(NC(=O)C1CC1C)C(=O)N1CCCC(N1)C(=O)OCC(C)(C)C2",
    "label_value": "NO"
  },
  {
    "molecule": "CC1(O)CCCC1n1c(=O)c(C(F)F)cc2cnc(NC3CCN(S(C)(=O)=O)CC3)nc21 (stereo not drawn) + CCn1c(-c2cc(N3CCN(C)CC3)cnc2C(C)OC)c2c3cc(ccc31)-c1csc(n1)CC(NC(=O)C1CC1C)C(=O)N1CCCC(N1)C(=O)OCC(C)(C)C2",
    "label_value": "NO"
  },
  {
    "molecule": "C[C@@H](NC(=O)c1ncnc(N)c1Cl)c1ncc(C(=O)Nc2cc(C(F)(F)F)c(Cl)cn2)s1 + CCn1c(-c2cc(N3CCN(C)CC3)cnc2C(C)OC)c2c3cc(ccc31)-c1csc(n1)CC(NC(=O)C1CC1C)C(=O)N1CCCC(N1)C(=O)OCC(C)(C)C2",
    "label_value": "NO"
  },
  {
    "molecule": "CC(Nc1ccc2c(c1)OCCn1cc(N3C(=O)OCC3C(F)F)nc1-2)C(N)=O (stereo not drawn) + CCn1c(-c2cccnc2C(C)OC)c2c3cc(ccc31)N1CCOC(CC(NC(=O)C(C(C)C)N(C)C(=O)C3(F)CCN(C(=O)C#CC(C)(C)N(C)C)CC3)C(=O)N3CCCC(N3)C(=O)OCC(C)(C)C2)C1",
    "label_value": "YES"
  }
]
